Provenance of the data: patent US10221173B2

biological target: estrogen receptor (ERα) in CAMA-1 cells (Homo sapiens (Human)); test: Western blotting assay, ER down-regulation in CAMA-1; type: cell-based; details: CAMA-1, 100 nM compound, 48 h, vs 100 nM fulvestrant
Sequence (P03372 whole entry): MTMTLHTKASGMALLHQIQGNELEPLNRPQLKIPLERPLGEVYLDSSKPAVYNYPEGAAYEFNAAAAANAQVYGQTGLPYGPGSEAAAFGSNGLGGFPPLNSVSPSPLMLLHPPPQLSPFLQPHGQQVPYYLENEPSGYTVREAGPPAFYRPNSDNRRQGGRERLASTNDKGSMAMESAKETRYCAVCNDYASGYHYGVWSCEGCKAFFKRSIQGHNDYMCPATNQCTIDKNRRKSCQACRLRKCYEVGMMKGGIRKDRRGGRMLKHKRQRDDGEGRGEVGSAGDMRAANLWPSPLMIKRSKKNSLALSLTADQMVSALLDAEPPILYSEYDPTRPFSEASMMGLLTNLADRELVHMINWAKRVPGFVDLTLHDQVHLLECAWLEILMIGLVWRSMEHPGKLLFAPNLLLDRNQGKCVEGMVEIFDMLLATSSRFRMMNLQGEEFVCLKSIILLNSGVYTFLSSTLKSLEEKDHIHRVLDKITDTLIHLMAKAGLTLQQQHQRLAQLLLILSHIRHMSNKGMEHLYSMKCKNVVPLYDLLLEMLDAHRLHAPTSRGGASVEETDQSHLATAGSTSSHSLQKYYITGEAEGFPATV
property: CAMA1 Western % ER deg vs Fv (%)
Provide only the numeric value, understood in %.

C[C@@H]1Cc2c([nH]c3ccccc23)[C@@H](c2c(F)cnc(OCCNCCCF)c2Cl)N1CC(F)(F)CO [Example 111] :: 92
C[C@@H]1Cc2c([nH]c3ccccc23)[C@@H](c2cc(OCCNCCCF)ccc2C#N)N1CC(F)(F)F [Example 23] :: 95

Asked: What value of CAMA1 Western % ER deg vs Fv has been recorded for this entry: C[C@@H]1Cc2c([nH]c3ccccc23)[C@@H](c2cc(OCCNCCCF)ccc2F)N1CC(F)(F)F [Example 10]
Given back: 101

Asked: Requested field: CAMA1 Western % ER deg vs Fv. Item: C[C@@H]1Cc2c([nH]c3ccc(F)cc23)[C@@H](c2c(F)ccc(OCCNCCCF)c2F)N1CC(F)(F)CO [Example 15]
Given back: 91

* * *

assay: Log D (shake flask, 1-octanol/aqueous buffer); format: physicochemical; settings: 1-octanol/aqueous buffer, pH 7.4, pH 7.4
Below, each entry is listed alongside its reported logD.

Record excerpt, results attached:
C[C@@H]1Cc2c([nH]c3ccc(F)cc23)[C@@H](c2c(F)cnc(OCCNCCCF)c2F)N1CC1(F)CC1 :: > 3.6
C[C@@H]1Cc2c([nH]c3ccccc23)[C@@H](c2c(Cl)ccc(OCCNCCCF)c2F)N1CC(F)(F)F :: 4
COc1ccc(OCCNCCCF)cc1[C@@H]1c2[nH]c3ccccc3c2C[C@@H](C)N1C[C@H](C)C(=O)O :: 0.1

Asked: # lookup: logD of COc1ccc(OCCNCCCF)cc1[C@@H]1c2[nH]c3ccc(F)cc3c2C[C@@H](C)N1CC(F)(F)CO
Given back: 2.8

Asked: Quick one: logD of COc1ccc(OC[C@@H](C)NCCCF)cc1[C@@H]1c2[nH]c3ccccc3c2C[C@@H](C)N1CC(F)(F)CO ?
Given back: 2.8

Asked: Quick one: logD for C[C@@H]1Cc2c([nH]c3ccccc23)[C@@H](c2nccc(OCCNCCCF)c2F)N1CC(F)(F)CO ?
Given back: 1.8

Asked: Give its logD value. Item: COc1ncc(OCCNCCCF)cc1[C@@H]1c2[nH]c3ccccc3c2C[C@@H](C)N1CC(F)(F)F
Given back: 3.5

Asked: Please give the measured logD for this molecule: Cc1ccc(OCCNCCCF)nc1[C@@H]1c2[nH]c3ccccc3c2C[C@@H](C)N1CC(F)(F)F
Given back: 3.4

Asked: Field request: logD | item: C[C@@H]1Cc2c([nH]c3ccccc23)[C@@H](c2c(F)ccc(OCCN(C)CCCF)c2F)N1CC1(F)COC1
Given back: 3.5

* * *

target: Estrogen Receptor (ERα) in MCF-7 cells (Homo sapiens (Human)); test: MCF-7 ER down-regulation assay (immuno-fluorescence); format: cell-based; details: maximum downregulation
property: % downregulation (in brackets) (%)
Quick note: give the figure in %, leave out the unit.

COc1ccc(OCCNCCCF)c(F)c1[C@@H]1c2[nH]c3ccccc3c2C[C@@H](C)N1CC1(F)COC1 :: 83
Cc1c(OCCNCCCF)ccc(F)c1[C@@H]1c2[nH]c3ccccc3c2CC(C)(C)N1C[C@H](C)C(=O)O :: 85
COc1ccc(OC[C@@H](C)NCCCF)cc1[C@@H]1c2[nH]c3ccccc3c2C[C@@H](C)N1CC(F)(F)CO :: 81
Cc1c(OCCN(C)CCCF)ccc(F)c1[C@@H]1c2[nH]c3ccccc3c2C[C@@H](C(F)(F)F)N1C[C@H](C)C(=O)O :: 86

Asked: Which % downregulation (in brackets) value belongs to C[C@@H]1Cc2c([nH]c3ccccc23)[C@@H](c2c(F)ccc(OCCN(C)CCCF)c2F)N1C[C@H](C)C(=O)O ?
Given back: 88

Asked: Value lookup for % downregulation (in brackets); key = COc1ccc(O[C@H](C)CNCCCF)cc1[C@@H]1c2[nH]c3ccccc3c2C[C@@H](C)N1CC(F)(F)CO
Given back: 81

Asked: Please give the measured % downregulation (in brackets) for this molecule: COCc1ccc(OCCNCCCF)cc1[C@@H]1c2[nH]c3ccccc3c2C[C@@H](C)N1CC(F)(F)F
Given back: 90
